Source of measurements: the supplement of paper PMC10567573

Parameter: protein stability index. Scope: all listed entries.
B1: RAB40B (parent)
chain: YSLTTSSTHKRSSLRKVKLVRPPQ

Variants of: B1
Test: protein stability index of a GFP-peptide fusion (GPS, HEK-293T) (PSI 1-6); higher = more stable;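 also: lentivirally expressed fusions sorted by FACS into six bins by GFP to DsRed ratio, PSI derived from sequencing read proportions per bin multiplied by bin number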
Conditions: c terminus: a fixed tail appended
MEASUREMENT LABEL: protein stability index

[
  {
    "RECORD SEQUENCE": "YSLTTLSTHKRSSLRKVKLVRPPQ [S6L]",
    "MEASUREMENT LABEL": "protein stability index",
    "ENDPOINT VALUE": 2.93
  },
  {
    "RECORD SEQUENCE": "YSLTTSSTHKRSSLRSVKLVRPPQ [K16S]",
    "MEASUREMENT LABEL": "protein stability index",
    "ENDPOINT VALUE": 2.93
  },
  {
    "RECORD SEQUENCE": "YSLTTSSTHKRTSLRKVKLVRPPQ [S12T]",
    "MEASUREMENT LABEL": "protein stability index",
    "ENDPOINT VALUE": 3.07
  },
  {
    "RECORD SEQUENCE": "YSTTTSSTHKRSSLRKVKLVRPPQ [L3T]",
    "MEASUREMENT LABEL": "protein stability index",
    "ENDPOINT VALUE": 3.08
  }
]
